Assay: folding stability dG unfold from chymotrypsin proteolysis; higher = more stable
Readout Type: folding stability dG unfold
Write the numeric value and follow it with the unit.

Some sequences with recorded folding stability dG unfold:
Sequence Record	folding stability dG unfold
SAGMKLTVTITDPATGKTYTITVKPGGETTVTNGSSTTSISIPTSDPKKVEELAEEIEPKGYTATITLESAG [r5_791_JUSTAS]	1.36 kcal/mol
SAGGSAGGSASMGVVDEFVVYVPGEKGEEVEVKVYKDPNSDRYIVEIKGKKIPVTDEKKALLSAGGSAGGSA [r18_67_JUSTAS]	0.0997 kcal/mol
SAGGSAGGGHMPVTKTVQLPGRTVTLTYYPEKGTVKITFPEDGTEKTVPISPSETIEDVIKKLSSAGGSAGG [r6_166_JUSTAS]	2.74 kcal/mol

Look at each sequence and report its folding stability dG unfold.
1. SAGGSAGGPMSAEELARFLANEFHKKHGMPPGHRVKIPVKWRDPEDGNEQEVTIEIPIRMPKGDSAGGSAGG [r6_799_TrROS]
2. SAGGSAGGSGAEEIAKALKELGVKKVEITVERNENGELTVTVRVEVEAPPPKVEVKTEEELKKSAGGSAGGS [r12_246_TrROS_Hall]
3. SAGGPNFMFRVKMPHPRPKKDPEDGKEKWRPQRHEHTVPFPADDPEQALDELADNMPPNNFKITDITSAGGS [r16_459_TrROS]
4. SAGGSAGGSAGKYYIIKYPGKVEIIPESEVEKIIEANPNVEIEEFESKEEALKALEKALSSAGGSAGGSAGG [r11_60_TrMRF]
5. MPSVTLPVTLVLDTRRPDGRPLTPEQVRALAEAAVRELAEATGVDVEADVTVTPLGPEGRAVVDVVVTVRPS [r1_231_TrMRF]
6. WKIVEITDIEPDPDGWLEIKITIEPPEPGDPIKIMIFHPNQFHEFEIDPESPEIEIRIPPGFDNLHIFIYVS [r1_428_TrROS]
7. SAGGSAGGSAGGMNPIVIKKTYPVKSGSFTVTLPEGVTPVSFEKDPNSDTITIEVLVEPSAGGSAGGSAGGS [r10_906_JUSTAS]

Completion:
1.4 kcal/mol
1.01 kcal/mol
0.45 kcal/mol
4.24 kcal/mol
0.746 kcal/mol
4.42 kcal/mol
-0.713 kcal/mol

Look at each sequence and report its folding stability dG unfold.
1. SAGGSPHVSTDAADPELAARLLREAFGTDEVPLVRRDPTTGALLAFLPATGRLVWTDRTTVRVEPSSAGGSA [r2_205_TrMRF]
2. SAGGSAGGKKTVEIEMTVDELLAALKSLSEEELKNVKIIGKDGKEFTLEDLEKNPGKIYKIEVKSAGGSAGG [r6_428_TrROS_Hall]

Completion:
-0.0869 kcal/mol
2.23 kcal/mol

Look at each sequence and report its folding stability dG unfold.
1. SAGGSAGGSAGTLTLRVQLFDEDGRLVAEREVELEVELPPPPPVELEFDEETRELRRRRLSAGGSAGGSAGG [r17_348_TrROS_Hall]
2. SAGGSAGGSAGGSPLTLTRTLTLTRTTTDPDVPGTTTTETRTLTLTTELTLPPLPPGTPSAGGSAGGSAGGS [r4_231_TrROS_Hall]

Completion:
1: 0.811 kcal/mol; 2: 0.588 kcal/mol

====

Would you kindly list folding stability dG unfold for each of these sequences?
Test: folding stability dG unfold (combined trypsin and chymotrypsin); higher = more stable
One number for each entry, in kcal/mol.

Some sequences with recorded folding stability dG unfold:
Sequence Record	Readout Type	Experimental Result
SAGGPVLRLSFPTRTPDGELVRVEVVYDPETGALLVRVYSLTRPNRAVLYLVDPENPLTVLRAEELPLSAGG [r13_400_TrMRF]	folding stability dG unfold	2.82
SAGGSMTAEELAEELAARHPDATVERSPSGVVTFRLPATGLTVTVSSGAGELRITVEDPTVPRRTLESAGGS [r16_478_JUSTAS]	folding stability dG unfold	-0.312
SAGGPPGWKPVEMKITVMFDDPEEAAEKIKEEVRSHFPNIEITKVEVQRNPENNMYMVTVDIRMWVPSAGGS [r8_120_TrROS]	folding stability dG unfold	3.37

Look at each sequence and report its folding stability dG unfold.
1. SAGGSAGPLPNEKVEVTLTIPLNVLVLDEDGEPLTPEEIARRVRELFSDVSVTLEPGDRLVITLTESAGGSA [r15_645_TrMRF]
2. SAGGSAGGSAGGKTLTLVFKTKEEAEEAAKKLGFKKVEVKEFKNEDGEKYLVVKIELKPSAGGSAGGSAGGS [r10_494_TrROS_Hall]
3. SAGGGNKPKIKVLLFFPDRVVELEFESPEEFIRALEEAGFPVIPVSEDSKYLVIEFPDGLRALADFSSAGGS [r8_365_TrMRF]

Completion:
[1.85, 2.94, 2.48]

Look at each sequence and report its folding stability dG unfold.
1. SASMEAALAKVEEITAEPSWELVGVSPEGVFTIRNPETGTEIVIEIKVTSDGKGYKVTIPSKTVVPAPESAG [r14_20_JUSTAS]
2. SAGGSKPLKKIVIPLTPEELKKLKGKKVKITIKVDGKEYEIEFIDGYAVITVPAGEKVEITKIEIESAGGSA [r2_246_TrROS_Hall]
3. SAGITIRLPGAEIEVQRYPHPGNGMPMYRVTVELENPEGKKPKVDVIFPPNQPPGQVENVARYIAKELKSAG [r5_704_TrROS]
4. SAGGSAGGDPGDDYKIGVFPFTFLFGGYRISIPIFRITKDGKPQHIFMAIEIEPLPPPKDPGDNSAGGSAGG [r6_684_TrROS]
5. SAGGSAGGSAGGSMLKGKIISVDPKKGYAIIYIPGKKKLLIIKFDPDNTIVEIKEAPLSSAGGSAGGSAGGS [r4_192_TrMRF]
6. SAGGSAGGATTEINLPLKVPGSGVTITKMTYDPNKDVYFVTATFPDGTKKTIKVKSLEELKKLLSAGGSAGG [r6_548_JUSTAS]

Completion:
1.38
2.41
0.472
3.71
2.44
3.11

Look at each sequence and report its folding stability dG unfold.
1. SAGGSATIEEKIRNIAKEQGFPVTDVQVRRTPGKVYIMFQAKDPRMYYIEIDNDKIKIMPAEDIKPSAGGSA [r15_901_TrROS]
2. SAGGSAGGSAGSMDSLPMPQVTPKVVELNVPPEEAEKLKKELGAKEIKFSPEGKLIIYLESAGGSAGGSAGG [r11_64_JUSTAS]
3. SAGGSAGGSAGGSMKIVEVELIEYDEETKEFVYVFRVRLEDGSERLIVITPDGEMRVVPSAGGSAGGSAGGS [r4_35_TrROS_Hall]
4. SAGGMSFTMTVPPSNPNQVVGTNVPVSDVPPNYAYTLHFPNTGTTTTIPVSQAEEVKAQPHIDEITATSAGG [r19_302_JUSTAS]
5. SAGGSAGGSAKPDPGAPYPWKIVEVVPIRIDMYFKFPGEPFKMDIEIPILVMVDPDNGKIFSAGGSAGGSAG [r3_391_TrROS]
6. SAGGMYMVQIEVRSPDKEIPFMIMVPEDDPKKIVDDIKEEIAEEAGADNVNIKIEVYRMDENGEWEWISAGG [r13_877_TrROS]
7. SAGGKKKKIEIEIVVKKEDLEKIAEELAKKLEEAGYKVKIKKIEVEVYKNKDGKIVYVKVRIEVEVEPSAGG [r13_707_TrROS_Hall]

Completion:
[1.36, -0.453, 3.26, 0.486, 2.7, 1.02, 4.65]

Look at each sequence and report its folding stability dG unfold.
1. SAGGSAGGSAGYESVVNELKRKGYKVEVKKTPDGTYVVTVTKKDGTVETITLGPEGGKISSAGGSAGGSAGG [r17_503_JUSTAS]
2. KKVKIEIEVEKVEDGYYVVRIKVKFEETEETIELELVFPKSLEEVLEKIKELLPEGQITEVEIEVYPLPEPS [r1_399_TrROS_Hall]
3. SAGGSASLNLTPDDNVTLTVSTPDGSGATVEVKVEKLPDGTIKLTETVTWPDGTVSTRTSTISTKASAGGSA [r15_476_JUSTAS]
4. SAGGSAGGSAGKKSYVLIKVKNPKTKETHTIVVPEENLEEVLKALASQPNVKVVDIERFPSAGGSAGGSAGG [r11_692_TrROS_Hall]

Completion:
1. 4.16
2. 3.72
3. 0.893
4. 3.95
